Where do these numbers come from? They come from ChEMBL document CHEMBL1773050.

biological target: Uracil-DNA glycosylase (Vaccinia virus (strain Western Reserve) (VACV) (Vaccinia virus (strainWR))); experiment: Binding affinity at Vaccinia virus WR strain D4 assessed as change in unfolding transition temperature at 50 uM by thermofluor method
Each entry below carries its reported ΔTm.
Form entry: value (°C) — number only.

These recorded examples may help you get a feel for the data.
CCOC(=O)c1cnc2c(ccc3ccccc32)c1Nc1ccc(N(C)C)cc1 :: -1.5
COc1ccc(Nc2c(-c3cc(Br)ccc3O)nc3ncccn23)cc1OC :: -0.1
Cc1ccc2oc(-c3ccc(Cl)cc3)c(O)c(=O)c2c1 :: -2
COc1ccc(NCc2nc3ccccc3n2CCOc2ccc(C)cc2)cc1 :: -3.2
COc1ccc(Nc2nc(Nc3ccc(OC)cc3OC)nc(N3CCOCC3)n2)c(OC)c1 :: -3.4
COc1ccc(Nc2cc(C(=O)NCCCN3CCN(c4ccccc4F)CC3)c3ccccc3n2)c(OC)c1 :: -3.6

What the record says about "Cc1ccccc1Nc1c(-c2ccc(Br)cc2O)nc2sccn12" : ΔTm is -1.9

ΔTm reading for "C=C(Cn1cc(C(=O)c2ccc(CC)cc2)c(=O)c2ccccc21)Nc1ccc(OC)c(OC)c1" : -3.2

Looking up "Fc1ccc(Nc2c(-c3ccccn3)nc3ccc(Cl)cn23)cc1" , I found its ΔTm recorded as -3.7

Documented ΔTm of "COc1ccc(/C=C/c2nc(-c3ccccc3O)n(-c3ccccc3)n2)cc1OC" : -3.7

###

target: Uracil-DNA glycosylase (Vaccinia virus (strain Western Reserve) (VACV) (Vaccinia virus (strainWR))) (UniProt P04303); experiment: Binding affinity at Vaccinia virus WR strain D4 assessed as change in unfolding transition temperature at 50 uM by thermofluor method
Label key: Fulfilled means ΔTm under -2 °C; Not fulfilled means ΔTm of -2 °C or more.

Examples from the recorded data:
COc1ccc(C)cc1N(CC(=O)N1CCC(C)CC1)S(=O)(=O)c1ccc(C)cc1 :: Fulfilled
CCOc1ccccc1C(=O)Nc1ccc2nc3c(c(Nc4ccc(OC)c(OC)c4)c2c1)CCCC3 :: Fulfilled
OC1COc2ccc(-c3cc(-c4ccc(F)cc4)c4c(n3)-c3cc(Cl)ccc3OC4)cc2N1 (stereo unspecified) :: Fulfilled
Oc1ccc(NCc2ccccc2OCc2ccccc2)cc1 :: Not fulfilled
COc1ccc(OCCn2c(NC(=O)c3ccc(OC)cc3)nc3ccccc32)cc1 :: Fulfilled
Cn1c(=O)n(C)c2cc(NS(=O)(=O)c3ccc(C(C)(C)C)cc3)c(NCc3ccccc3)cc21 :: Not fulfilled

Query string: Strictly below -2 °C in ΔTm? Cc1cc2n(n1)C(c1cc(C(C)(C)C)c(O)cc1O)Nc1ccccc1-2 (stereo unspecified)
Result string: Not fulfilled

Query string: Consider "COc1cc(NC(=O)c2cccc3c2C(=O)N(C2CCCCC2)C3)cc(OC)c1OC" . Does its ΔTm lie strictly below -2 °C?
Result string: Fulfilled

Query string: In the record for CCOc1ccc2c(c1)C1CC=CC1[C@H](c1ccccc1Cl)N2 (stereo partly specified) , is ΔTm less than -2 °C?
Result string: Fulfilled

###

experiment: Solubility of the compound in phosphate buffer by chemiluminescence of total nitrogen contents; assay type: physicochemical; conditions: phosphate buffer; read-out: solubility
Readout: solubility (µg/mL)
Numeric only. Scale: µg/mL

Data point: O=C1c2ccccc2-c2onc3c2C1C(NC1CCCCC1)C=C3NCCO (stereo unspecified) ; solubility = 1.4

###

Tm for assorted compounds
molecular target: Uracil-DNA glycosylase (Vaccinia virus (strain Western Reserve) (VACV) (Vaccinia virus (strainWR))) (UniProt P04303); experiment: Binding affinity at Vaccinia virus WR strain D4 assessed as melting temperature at 50 uM by thermofluor method
Express it in °C; write the number only.

Before answering, review these 4 worked examples.
CN(C)c1ccc(NC(=O)CSc2nc(-c3ccco3)cc(C(F)(F)F)n2)cc1 :: 35.1
Cc1cc2n(n1)C(c1cc(C(C)(C)C)c(O)cc1O)Nc1ccccc1-2 (stereo not given) :: 44.3
COc1cc(NC(=O)c2cccc3c2C(=O)N(C2CCCCC2)C3)cc(OC)c1OC :: 33.2
COc1ccc(C)cc1N(CC(=O)N1CCC(C)CC1)S(=O)(=O)c1ccc(C)cc1 :: 33.6

The measured Tm associated with "Cc1ccc2oc(-c3ccc(Cl)cc3)c(O)c(=O)c2c1" reads 36.4

###

test system: Vaccinia virus; test: Antiviral activity against Vaccinia virus infected in BSC-1 cells by plaque reduction assay; assay type: functional, organism-based; conditions: Orthopoxvirus vaccinia
Readout: EC50 (µM)
Response body: numeric value in µM, unit text excluded.

Recorded EC50 (compound "COc1ccc(NCc2nc3ccccc3n2CCOc2ccc(C)cc2)cc1" ): 5.5

Noted for OC1COc2ccc(-c3cc(-c4ccc(F)cc4)c4c(n3)-c3cc(Cl)ccc3OC4)cc2N1 (stereo not drawn) : its EC50 reads 74.6

Lab note: "COc1ccc(OCCn2c(NC(=O)c3ccc(OC)cc3)nc3ccccc32)cc1" gave EC50 of 47.9

Data point: "COc1cc(-c2nc(-c3ccccc3)c(-c3ccc(Br)cc3)[nH]2)cc(OC)c1O" ; EC50 = 16.7

###

test system: BSC-1; assay: Cytotoxicity against african green monkey BSC1 cells infected with Vaccinia virus assessed as lactate dehydrogenase release after 20 hrs by microplate reader; assay type: cell-based; details: chlorocebus aethiops, bsc-1, 20 h
Mark yes only when CC50 stays strictly below 100 µM. Values equal to the cut-off are no.

Answered cases to consult:
Oc1ccc(NCc2ccccc2OCc2ccccc2)cc1 :: no
CN(C)c1ccc(NC(=O)CSc2nc(-c3ccco3)cc(C(F)(F)F)n2)cc1 :: yes
COc1ccc(Nc2nc(Nc3ccc(OC)cc3OC)nc(N3CCOCC3)n2)c(OC)c1 :: no
Cc1cc2n(n1)C(c1cc(C(C)(C)C)c(O)cc1O)Nc1ccccc1-2 (stereo not given) :: yes
COc1ccc(/C=C/c2nc(-c3ccccc3O)n(-c3ccccc3)n2)cc1OC :: no

Query string: CC50 strictly < 100 µM for this compound? O=S(=O)(c1ccc(C2=CSC(Nc3ccc(F)cc3)N2CCCCCCO)cc1)N1CCCC1 (stereo not given)
Result string: no

Query string: Please determine if "Cn1c(=O)n(C)c2cc(NS(=O)(=O)c3ccc(C(C)(C)C)cc3)c(NCc3ccccc3)cc21" is below 100 µM in terms of CC50.
Result string: no

###

assay: Solubility of the compound in phosphate buffer by chemiluminescence of total nitrogen contents; assay type: physicochemical; conditions: buffer
solubility for assorted compounds
Report as a plain number; the unit µg/mL is understood.

Solved entries:
Cc1cc2n(n1)C(c1cc(C(C)(C)C)c(O)cc1O)Nc1ccccc1-2 (centres undefined) :: 19.1
Oc1ccc(NCc2ccccc2OCc2ccccc2)cc1 :: 1.1
COc1cc(-c2nc(-c3ccccc3)c(-c3ccc(Br)cc3)[nH]2)cc(OC)c1O :: 1.4

Next item in the queue.
Item: "Cn1c(=O)n(C)c2cc(NS(=O)(=O)c3ccc(C(C)(C)C)cc3)c(NCc3ccccc3)cc21" | solubility: 0.9

###

target: Uracil-DNA glycosylase (Vaccinia virus (strain Western Reserve) (VACV) (Vaccinia virus (strainWR)), UniProt P04303); assay: Inhibition of Vaccinia virus WR strain processivity factor D4 interaction with A20 protein assessed as inhibition of E9 DNA polymerase-mediated DIG-dUTP incorporation into DNA strand by rapid plate assay
Rule for this label: label 1 means IC50 is less than 100 µM; label 0 means IC50 is at least 100 µM.

For orientation, consider the following solved cases.
Fc1ccc(Nc2c(-c3ccccn3)nc3ccc(Cl)cn23)cc1 :: label 0
Cn1c(=O)n(C)c2cc(NS(=O)(=O)c3ccc(C(C)(C)C)cc3)c(NCc3ccccc3)cc21 :: label 0
OC1COc2ccc(-c3cc(-c4ccc(F)cc4)c4c(n3)-c3cc(Cl)ccc3OC4)cc2N1 (stereo not given) :: label 0

Query string: Given the entry "Oc1ccc(Cl)cc1Sc1cc(Cl)ccc1O" , would its reported IC50 be below 100 µM?
Result string: label 1

Query string: Say whether its IC50 is strictly beneath 100 µM. Entry: "COc1cc(NC(=O)c2cccc3c2C(=O)N(C2CCCCC2)C3)cc(OC)c1OC"
Result string: label 0

Query string: Does the reported IC50 of "COc1ccc(/C=C/c2nc(-c3ccccc3O)n(-c3ccccc3)n2)cc1OC" stay below 100 µM?
Result string: label 0

Query string: Field: below-cutoff. Rule: recorded IC50 strictly less than 100 µM. Subject: "COc1ccc(OCCn2c(NC(=O)c3ccc(OC)cc3)nc3ccccc32)cc1"
Result string: label 0

###

test system: BSC-1; assay: Cytotoxicity against african green monkey BSC1 cells infected with Vaccinia virus assessed as lactate dehydrogenase release after 20 hrs by microplate reader; assay type: cell-based; conditions: chlorocebus aethiops, bsc-1, 20 h
Readout: CC50 (µM)
Output spec: scalar in µM, unitless text.

COc1ccc(OCCn2c(NC(=O)c3ccc(OC)cc3)nc3ccccc32)cc1 :: 23.2
COc1ccc(N2CCN(Cc3nc4c(c(=O)[nH]c(=O)n4C)n3Cc3ccc(Cl)cc3)CC2)cc1 :: 92.8

Consider the record given below.
# molecule "C=C(Cn1cc(C(=O)c2ccc(CC)cc2)c(=O)c2ccccc21)Nc1ccc(OC)c(OC)c1" ; its CC50 = 52.9
